Reference source for all entries: patent US20240140991A1

Each entry below carries its recorded Minimum inhibitory concentration (MIC).
# Tested on: Escherichia coli ATCC 25922
# Type: cell-based
# condition description: ATCC 25922
Non-standard residues stand in square brackets, D forms with d. Residues, ends and D or L forms follow the SMILES beside them. *: point of attachment. Octanoyl(7-Me) = CC(C)CCCCCC(=O)*; dOrn = NCCC[C@@H](N)C(=O)O; Orn = NCCC[C@H](N)C(=O)O; Dap = NC[C@H](N)C(=O)O; Alloc = C=CCOC(=O)*; OAll = C=CCO*
Quick reminder: number only, in µg/mL, skip the unit.

compound="C=CCOC(=O)CNC(=O)CNC(=O)[C@H](CC(N)=O)NC(=O)[C@@H](NC(=O)[C@H](CNC(=O)OCC=C)NC(=O)[C@H](Cc1c[nH]c2ccccc12)NC(=O)[C@@H](CCCN)NC(=O)CNC(=O)[C@H](CCCN)NC(=O)[C@@H](CCCN)NC(=O)[C@@H](Cc1c[nH]c2ccccc12)NC(=O)[C@@H](Cc1ccc(O)cc1)NC(=O)[C@@H](CO)NC(=O)CCCCCC(C)C)[C@@H](C)CC [Dap(Alloc)9-COOAll] ({Octanoyl(7-Me)}-[dS][dY][dW][dOrn][Orn]G[dOrn]W[Dap](Alloc)INGG-OAll)" observed_value=2

Now for a further compound.
Query: Fill in the blank: the reported Minimum inhibitory concentration (MIC) of CC[C@H](C)[C@H](NC(=O)[C@H](CO)NC(=O)[C@H](Cc1c[nH]c2ccccc12)NC(=O)[C@@H](CCCN)NC(=O)CNC(=O)[C@H](CCCN)NC(=O)[C@@H](CCCN)NC(=O)[C@@H](Cc1c[nH]c2ccccc12)NC(=O)[C@@H](Cc1ccc(O)cc1)NC(=O)[C@@H](CO)NC(=O)CCCCCC(C)C)C(=O)N[C@@H](CC(N)=O)C(=O)NCC(=O)NCC(N)=O [Ser9-CONH2] ({Octanoyl(7-Me)}-[dS][dY][dW][dOrn][Orn]G[dOrn]WSINGG-NH2) is ____.
Reply: 2

====

# Tested on: K. pneumoniae ATCC 11228
# Type: cell-based, Klebsiella pneumoniae
# condition description: ATCC 11228
Positions of bridges follow the written chain, without caps; N, C: chain ends. Non-standard residues stand in square brackets, D forms with d. Residues, ends and D or L forms follow the SMILES beside them. *: point of attachment. Palmitoyl = CCCCCCCCCCCCCCCC(=O)*; Myristoyl = CCCCCCCCCCCCCC(=O)*; dOrn = NCCC[C@@H](N)C(=O)O; Orn = NCCC[C@H](N)C(=O)O; Butyryl = CCCC(=O)*
Each entry below lists one item and its recorded Minimum inhibitory concentration (MIC) value.
// return numeric value only (unit: µg/mL, not printed)

compound="CCCC(=O)N[C@H](CO)C(=O)N[C@H](Cc1ccc(O)cc1)C(=O)N[C@H](Cc1c[nH]c2ccccc12)C(=O)N[C@H](CCCN)C(=O)N[C@@H](CCCN)C(=O)NCC(=O)N[C@H](CCCN)C(=O)N[C@@H](Cc1c[nH]c2ccccc12)C(=O)N[C@@H]1C(=O)N[C@@H]([C@@H](C)CC)C(=O)N[C@@H](CC(N)=O)C(=O)NCC(=O)NCC(=O)O[C@@H]1C [Compound C4] (Butyryl-[dS][dY][dW][dOrn][Orn]G[dOrn]WTINGG; ester 9-C)" experimental_target="K. pneumoniae ATCC 11228" observed_value=8
compound="CCCCCCCCCCCCCCCC(=O)N[C@H](CO)C(=O)N[C@H](Cc1ccc(O)cc1)C(=O)N[C@H](Cc1c[nH]c2ccccc12)C(=O)N[C@H](CCCN)C(=O)N[C@@H](CCCN)C(=O)NCC(=O)N[C@H](CCCN)C(=O)N[C@@H](Cc1c[nH]c2ccccc12)C(=O)N[C@@H]1C(=O)N[C@@H]([C@@H](C)CC)C(=O)N[C@@H](CC(N)=O)C(=O)NCC(=O)NCC(=O)O[C@@H]1C [Compound C16] (Palmitoyl-[dS][dY][dW][dOrn][Orn]G[dOrn]WTINGG; ester 9-C)" experimental_target="K. pneumoniae ATCC 11228" observed_value=32
compound="CCCCCCCCCCCCCC(=O)N[C@H](CO)C(=O)N[C@H](Cc1ccc(O)cc1)C(=O)N[C@H](Cc1c[nH]c2ccccc12)C(=O)N[C@H](CCCN)C(=O)N[C@@H](CCCN)C(=O)NCC(=O)N[C@H](CCCN)C(=O)N[C@@H](Cc1c[nH]c2ccccc12)C(=O)N[C@@H]1C(=O)N[C@@H]([C@@H](C)CC)C(=O)N[C@@H](CC(N)=O)C(=O)NCC(=O)NCC(=O)O[C@@H]1C [Compound C14] (Myristoyl-[dS][dY][dW][dOrn][Orn]G[dOrn]WTINGG; ester 9-C)" experimental_target="K. pneumoniae ATCC 11228" observed_value=8

Query: Which Minimum inhibitory concentration (MIC) value belongs to CCC(C)CCC(=O)N[C@H](CC(N)=O)C(=O)N[C@H](Cc1ccc(O)cc1)C(=O)N[C@H](Cc1c[nH]c2ccccc12)C(=O)N[C@H](CCCN)C(=O)N[C@@H](CCCN)C(=O)NCC(=O)N[C@H](CCCN)C(=O)N[C@@H](Cc1c[nH]c2ccccc12)C(=O)N[C@H]1COC(=O)[C@H](CO)NC(=O)CNC(=O)[C@H]([C@@H](C)CC)NC1=O (single isomer, unassigned) ?
Reply: 2

====

Documented E. coli MIC across a set of molecules
# Test system: E. Coli NCTC 12241
# Type: cell-based
Non-standard residues stand in square brackets, D forms with d. Residues, ends and D or L forms follow the SMILES beside them. ξ: configuration not given here. *: point of attachment. Hexanoyl(4ξ-Me) = CCC(C)CCC(=O)*; dOrn = NCCC[C@@H](N)C(=O)O; Octanoyl = CCCCCCCC(=O)*; Orn = NCCC[C@H](N)C(=O)O; Dap = NC[C@H](N)C(=O)O; Alloc = C=CCOC(=O)*
// note: answer is a bare numeric in µg/mL

Solved cases below.
molecule="C=CCOC(=O)NC[C@H](NC(=O)[C@H](Cc1c[nH]c2ccccc12)NC(=O)[C@@H](CCCN)NC(=O)CNC(=O)[C@H](CCCN)NC(=O)[C@@H](CCCN)NC(=O)[C@@H](Cc1c[nH]c2ccccc12)NC(=O)[C@@H](Cc1ccc(O)cc1)NC(=O)[C@@H](CC(N)=O)NC(=O)CCCCCCC)C(=O)N[C@H](C(=O)NCC(N)=O)[C@@H](C)CC [Oct Dap(Alloc) NH2] (Octanoyl-[dN][dY][dW][dOrn][Orn]G[dOrn]W[Dap](Alloc)IG-NH2)" observed_value=0.4
molecule="C=CCOC(=O)NC[C@H](NC(=O)[C@H](Cc1c[nH]c2ccccc12)NC(=O)[C@@H](CCCN)NC(=O)CNC(=O)[C@H](CCCN)NC(=O)[C@@H](CCCN)NC(=O)[C@@H](Cc1c[nH]c2ccccc12)NC(=O)[C@@H](Cc1ccc(O)cc1)NC(=O)[C@@H](CC(N)=O)NC(=O)CCC(C)CC)C(=O)N[C@H](C(=O)NCC(=O)O)[C@@H](C)CC (stereo partly drawn) [MeHex- Dap(Alloc) OH] ({Hexanoyl(4ξ-Me)}-[dN][dY][dW][dOrn][Orn]G[dOrn]W[Dap](Alloc)IG-OH)" observed_value=1.6

Now consider the entry below.
Query: Bench note: what E. coli MIC did CCC(C)CCC(=O)N[C@H](CC(N)=O)C(=O)N[C@H](Cc1ccc(O)cc1)C(=O)N[C@H](Cc1c[nH]c2ccccc12)C(=O)N[C@H](CCCN)C(=O)N[C@@H](CCCN)C(=O)NCC(=O)N[C@H](CCCN)C(=O)N[C@@H](Cc1c[nH]c2ccccc12)C(=O)N[C@@H](CN)C(=O)N[C@H](C(=O)NCC(N)=O)[C@@H](C)CC (stereo partly drawn) [Und(9-Dap)-NH2] ({Hexanoyl(4ξ-Me)}-[dN][dY][dW][dOrn][Orn]G[dOrn]W[Dap]IG-NH2) show?
Reply: 3.1

====

Below, each entry is listed alongside its reported Minimum inhibitory concentration (MIC).
# Test system: Escherichia coli ATCC 25922
# Assay type: cell-based
# condition description: ATCC 25922
Positions of bridges follow the written chain, without caps; N, C: chain ends. Non-standard residues stand in square brackets, D forms with d. Residues, ends and D or L forms follow the SMILES beside them. ξ: configuration not given here. *: point of attachment. Octanoyl(7-Me) = CC(C)CCCCCC(=O)*; Hexanoyl(4ξ-Me) = CCC(C)CCC(=O)*; dOrn = NCCC[C@@H](N)C(=O)O; Orn = NCCC[C@H](N)C(=O)O; Dap = NC[C@H](N)C(=O)O; Alloc = C=CCOC(=O)*

Example molecules with recorded Minimum inhibitory concentration (MIC):
molecule="CCC(C)CCC(=O)N[C@H](CO)C(=O)N[C@H](Cc1ccc(O)cc1)C(=O)N[C@H](Cc1c[nH]c2ccccc12)C(=O)N[C@H](CCCN)C(=O)N[C@@H](CCCN)C(=O)NCC(=O)N[C@H](CCCN)C(=O)N[C@@H](Cc1c[nH]c2ccccc12)C(=O)N[C@@H]1C(=O)N[C@@H]([C@@H](C)CC)C(=O)NCC(=O)N[C@H](CO)C(=O)N[C@@H](C)C(=O)O[C@@H]1C (some centres unmarked) [Compound R6] ({Hexanoyl(4ξ-Me)}-[dS][dY][dW][dOrn][Orn]G[dOrn]WTIG[dS]A; ester 9-C; N-terminus assumed)" observed_value="1 µg/mL"
molecule="CC[C@H](C)[C@H](NC(=O)[C@H](CCC(N)=O)NC(=O)[C@H](Cc1c[nH]c2ccccc12)NC(=O)[C@@H](CCCN)NC(=O)CNC(=O)[C@H](CCCN)NC(=O)[C@@H](CCCN)NC(=O)[C@@H](Cc1c[nH]c2ccccc12)NC(=O)[C@@H](Cc1ccc(O)cc1)NC(=O)[C@@H](CO)NC(=O)CCCCCC(C)C)C(=O)N[C@@H](CC(N)=O)C(=O)NCC(=O)NCC(N)=O [Gln9-CONH2] ({Octanoyl(7-Me)}-[dS][dY][dW][dOrn][Orn]G[dOrn]WQINGG-NH2)" observed_value="4 µg/mL"
molecule="CC[C@H](C)[C@H](NC(=O)[C@H](C)NC(=O)[C@H](Cc1c[nH]c2ccccc12)NC(=O)[C@@H](CCCN)NC(=O)CNC(=O)[C@H](CCCN)NC(=O)[C@@H](CCCN)NC(=O)[C@@H](Cc1c[nH]c2ccccc12)NC(=O)[C@@H](Cc1ccc(O)cc1)NC(=O)[C@@H](CO)NC(=O)CCCCCC(C)C)C(=O)N[C@@H](CC(N)=O)C(=O)NCC(=O)NCC(N)=O [Ala9 (Thr→Ala), FA-sywoOGoWAINGG-CONH2] ({Octanoyl(7-Me)}-[dS][dY][dW][dOrn][Orn]G[dOrn]WAINGG-NH2)" observed_value="2 µg/mL"

Query: Recorded Minimum inhibitory concentration (MIC) for CC[C@H](C)[C@H](NC(=O)[C@@H](NC(=O)[C@H](Cc1c[nH]c2ccccc12)NC(=O)[C@@H](CCCN)NC(=O)CNC(=O)[C@H](CCCN)NC(=O)[C@@H](CCCN)NC(=O)[C@@H](C)NC(=O)[C@@H](Cc1ccc(O)cc1)NC(=O)[C@@H](CO)NC(=O)CCCCCC(C)C)[C@@H](C)O)C(=O)N[C@@H](CC(N)=O)C(=O)NCC(=O)NCC(N)=O [Ala3 (D-Trp→D-Ala), FA-syaoOGoWTINGG-CONH2] ({Octanoyl(7-Me)}-[dS][dY][dA][dOrn][Orn]G[dOrn]WTINGG-NH2) , please?
Reply: 16 µg/mL

Query: Entry under review: CC[C@H](C)[C@H](NC(=O)[C@@H](NC(=O)[C@H](Cc1c[nH]c2ccccc12)NC(=O)[C@@H](CCCN)NC(=O)CNC(=O)[C@H](CCCN)NC(=O)[C@@H](CCCN)NC(=O)[C@@H](Cc1c[nH]c2ccccc12)NC(=O)[C@@H](Cc1ccc(O)cc1)NC(=O)[C@@H](CO)NC(=O)CCCCCC(C)C)[C@@H](C)O)C(=O)N[C@@H](C)C(=O)NCC(=O)NCC(N)=O [Ala11 (Asn→Ala), FA-sywoOGoWTIAGG-CONH2] ({Octanoyl(7-Me)}-[dS][dY][dW][dOrn][Orn]G[dOrn]WTIAGG-NH2) . Reported Minimum inhibitory concentration (MIC)?
Reply: 16 µg/mL

Query: What measured Minimum inhibitory concentration (MIC) goes with CC[C@H](C)[C@H](NC(=O)[C@@H](NC(=O)[C@H](C)NC(=O)[C@@H](CCCN)NC(=O)CNC(=O)[C@H](CCCN)NC(=O)[C@@H](CCCN)NC(=O)[C@@H](Cc1c[nH]c2ccccc12)NC(=O)[C@@H](Cc1ccc(O)cc1)NC(=O)[C@@H](CO)NC(=O)CCCCCC(C)C)[C@@H](C)O)C(=O)N[C@@H](CC(N)=O)C(=O)NCC(=O)NCC(N)=O [Ala8 (Trp→Ala), FA-sywoOGoATINGG-CONH2] ({Octanoyl(7-Me)}-[dS][dY][dW][dOrn][Orn]G[dOrn]ATINGG-NH2) ?
Reply: >64 µg/mL

Query: Form field: reported Minimum inhibitory concentration (MIC) of CC(C)CCCCCC(=O)N[C@H](CO)C(=O)N[C@H](Cc1ccc(O)cc1)C(=O)N[C@H](Cc1c[nH]c2ccccc12)C(=O)N[C@H](CCCN)C(=O)N[C@@H](CCCN)C(=O)NCC(=O)N[C@H](CCCN)C(=O)N[C@@H](Cc1c[nH]c2ccccc12)C(=O)N[C@H](C(=O)N[C@@H](C)C(=O)N[C@@H](CC(N)=O)C(=O)NCC(=O)NCC(N)=O)[C@@H](C)O [Ala10 (Ile→Ala), FA-sywoOGoWTANGG-CONH2] ({Octanoyl(7-Me)}-[dS][dY][dW][dOrn][Orn]G[dOrn]WTANGG-NH2)
Reply: 16 µg/mL

Query: I would be grateful if you could share the reported Minimum inhibitory concentration (MIC) for C=CCOC(=O)NC[C@H](NC(=O)[C@H](Cc1c[nH]c2ccccc12)NC(=O)[C@@H](CCCN)NC(=O)CNC(=O)[C@H](CCCN)NC(=O)[C@@H](CCCN)NC(=O)[C@@H](Cc1c[nH]c2ccccc12)NC(=O)[C@@H](Cc1ccc(O)cc1)NC(=O)[C@@H](CO)NC(=O)CCCCCC(C)C)C(=O)N[C@H](C(=O)N[C@@H](CC(N)=O)C(=O)NCC(=O)NCC(N)=O)[C@@H](C)CC [Dap(Alloc)9-CONH2] ({Octanoyl(7-Me)}-[dS][dY][dW][dOrn][Orn]G[dOrn]W[Dap](Alloc)INGG-NH2) .
Reply: 2 µg/mL
